Assay: in vitro
Details: both, human, plasma
Starred links: 1 amine or outer side, 2 acyl side, 3 side chain; linkers in the order of their positions; H or OH if unused. Non-standard residues stand in square brackets, D forms with d. Residues, ends and D or L forms follow the SMILES beside them. X1 = CC(C)C[C@H](NC(=S)[C@H](Cc1ccc(O)cc1)N[*:1])C(=O)[*:2]; X5 = CC(C)C[C@H](NC(=S)[C@H](CC(C)C)N[*:1])C(=O)[*:2]; X4 = CC(C)C[C@H](N[*:1])C(=S)N1CCC[C@@H]1C(=O)[*:2]; NMeY = CN[C@@H](Cc1ccc(O)cc1)C(=O)O; NMeL = CN[C@@H](CC(C)C)C(=O)O
TEST READOUT: remaining at 48 h
A complete answer gives the number and then names the unit.

In the examples that follow, each entry is paired with its recorded remaining at 48 h.
CC(C)C[C@@H]1NC(=O)[C@H](Cc2ccc(O)cc2)NC(=O)[C@H]2CCCN2C(=O)[C@H](CC(C)C)NC(=S)[C@H](CC(C)C)NC(=O)[C@@H](CC(C)C)NC1=O [10b] (cyclo(L[dL][X5][dP]Y))	25%
CC(C)C[C@@H]1NC(=O)[C@@H](CC(C)C)NC(=O)[C@H](CC(C)C)NC(=O)[C@H](Cc2ccc(O)cc2)N(C)C(=O)[C@H]2CCCN2C(=O)[C@H](CC(C)C)NC1=O [10j] (cyclo(LL[dP][NMeY]L[dL]))	9%
CC(C)C[C@@H]1NC(=O)[C@@H](CC(C)C)NC(=O)[C@H](CC(C)C)NC(=S)[C@H](Cc2ccc(O)cc2)NC(=O)[C@H]2CCCN2C(=O)[C@H](CC(C)C)NC1=O [10e] (cyclo(LL[dP][X1][dL]))	32%
CC(C)C[C@@H]1NC(=O)[C@H](Cc2ccc(O)cc2)NC(=O)[C@H]2CCCN2C(=S)[C@H](CC(C)C)NC(=O)[C@H](CC(C)C)NC(=O)[C@@H](CC(C)C)NC1=O [10c] (cyclo(L[dL]L[X4]Y))	26%

Attention now turns to another entry.
query: Find the recorded remaining at 48 h belonging to CC(C)C[C@@H]1NC(=O)[C@@H](CC(C)C)NC(=O)[C@H](CC(C)C)N(C)C(=O)[C@H](Cc2ccc(O)cc2)NC(=O)[C@H]2CCCN2C(=O)[C@H](CC(C)C)NC1=O [10k] (cyclo(LL[dP]Y[NMeL][dL])) and report it.
result: 8%
